# Target desc: ATP-dependent 6-phosphofructokinase (Trypanosoma brucei brucei)
# Test description: qHTS Validation Assay to Find Inhibitors of T. brucei phosphofructokinase (AID 485368)
# Test conditions: T. brucei PFK enzyme assay, qHTS 7-point titration; series mostly up to 57.5 µM
Inconclusive results are not listed. The source made the active and inactive calls. The call rests on the fitted dose curve; in most records, active means well fitted inhibition curve with a large enough effect; inconclusive means small, poorly fitted or top-dose-only effect, or effect the other way; inactive means flat fitted curve, though single readings scatter.
Bench note: report the call from True (active), False (inactive)

Ask: Field: outcome | Entry: "CCCCCCC(C)(C)c1ccc([C@@H]2C[C@H](O)CC[C@H]2CCCO)c(O)c1"
Result: False

Ask: Recorded test call requested for C[N+]1(C)C2CCC1CC(OC(=O)c1c[nH]c3ccccc13)C2 (configuration not stated)
Result: False

New cases:
Ask: Entry "NC(=O)c1cc(N2CC2)c([N+](=O)[O-])cc1[N+](=O)[O-]" : call = ?
Result: False

Ask: Hey, what did the test say about "c1ccc2cc(CC3=NCCN3)ccc2c1" ?
Result: False

Ask: Which outcome did this test record for the molecule "C[C@H](N)Cc1cccc(C(F)(F)F)c1" ?
Result: False

Ask: Recorded call for "NCCCP(=O)(O)O" ?
Result: False

Ask: Name the outcome recorded for C[C@@H]1O[C@@H](O[C@H]2C[C@@H](O)[C@]3(CO)[C@@H]4C(CC[C@]3(O)C2)[C@@]2(O)CC[C@H]([C@@H]3COC(=O)C3)[C@@]2(C)C[C@H]4O)[C@H](O)[C@H](O)[C@H]1O (some centres not stated) in the assay.
Result: False

Ask: What is the recorded call for this molecule in the test? "CCCN(CCC)CCc1c[nH]c2ccc(C(N)=O)cc12"
Result: False

Ask: Hi, sorry to bother you, what did the test record for "C[C@@H]1O[C@H](C[N+](C)(C)C)CS1" ?
Result: False

Ask: Hi, sorry to bother you, what did the test record for "O=C(O)c1cc[c]([Hg][Cl])cc1" ?
Result: True

---

# Test description: MultiTox-Fluor Cytotoxicity Assay - LYMP1-003 - Dead Cells (AID 961);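 further: cells exposed to compound for 16 h at 37 °C; nearly all actives have a fitted effect of over 70% in size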
# Test conditions: LYMP1-003 lymphoblastoid cells, dead-cell protease fluorescence; series mostly up to 92.2 µM
Active and inactive are the calls of the source. Calls follow the shape of the dose curve; as a rule, active = well fitted cell-killing curve with a large enough effect; inconclusive = small, poorly fitted or top-dose-only effect, or effect the other way; inactive = flat fitted curve, though single readings scatter.
I would appreciate it if you answered using one of these outcomes: active, inactive

Ask: Which outcome was assigned to "NNC(N)=O" in this test?
Result: inactive

Ask: What did the test return for "CC(C)Nc1ccc(Nc2ccccc2)cc1" ?
Result: active

Ask: Hi team, can someone confirm the assay call for "O=C/C=C/c1ccccc1" ?
Result: inactive

Ask: Dear colleague, could you share the recorded outcome for ClCC1CO1 (stereo not drawn) when you have a moment?
Result: inactive

Ask: Just curious, what result did "CCOC(=O)c1ccccc1C(=O)OCC" get here?
Result: inactive

Ask: For "CCCCCl" , what call appears in the results of this test?
Result: inactive

Ask: Please indicate how the test categorized "O=C(O)C(Cl)(Cl)Cl" .
Result: inactive

Ask: Recorded test call requested for "O=C1CCO1"
Result: inactive

Shifting focus to the compound that follows.
Ask: In this assay, the call recorded for "O=CC=O" was what?
Result: inactive

---

# Test description: Primary qHTS for inhibitors of nuclear receptor binding SET domain protein 2 (NSD2) in an isogenic RCH-ACV NSD2 p.E1099K mutant (9B) (AID 1645876); further: nearly all actives have a fitted effect of over 70% in size
# Test conditions: RCH-ACV (leukaemia line) NSD2 E1099K (9B) viability, CellTiter-Glo, 72 h; series mostly up to 44.9 µM
Results filed as inconclusive are left out. Activity calls are given as the source filed them. Calls follow the shape of the dose curve; as a rule, active = well fitted inhibition curve with a large enough effect; inconclusive = small, poorly fitted or top-dose-only effect; inactive = flat fitted curve, though single readings scatter.
Measure: Potency

get_value(item= "COc1ccccc1CN[C@H]1C2CCN(CC2)[C@H]1C(c1ccccc1)c1ccccc1" , readout=Potency) returns inactive

The recorded Potency for entry "Clc1ccc(OCC2=NCCN2)cc1Cl" equals inactive

Sure, the documented Potency for COCC1OC(=O)c2coc3c2C1(C)C1=C(C3=O)C2CCC(=O)C2(C)CC1O (configuration not stated) is inactive

In plain terms, C[C@@]12C[C@@H](c3ccoc3)OC(=O)C1CC[C@]1(C)[C@H]2[C@H]2C=C[C@]1(O)C(=O)O2 (some centres not stated) has a documented Potency of inactive

Reported Potency ( "COc1cc2c(cc1OC)[C@@]13CCN4CC5=CCO[C@H]6CC(=O)N2[C@H]1[C@H]6[C@H]5C[C@H]43" ) = inactive

New cases:
// Potency value for "Cc1cc(C(=O)CN2CCCC2)c(C)n1-c1ccc(F)cc1" : inactive

---

# Target desc: Thioredoxin reductase 1, cytoplasmic (Rattus norvegicus) (UniProt O89049)
# Sequence (O89049 whole entry, looked up): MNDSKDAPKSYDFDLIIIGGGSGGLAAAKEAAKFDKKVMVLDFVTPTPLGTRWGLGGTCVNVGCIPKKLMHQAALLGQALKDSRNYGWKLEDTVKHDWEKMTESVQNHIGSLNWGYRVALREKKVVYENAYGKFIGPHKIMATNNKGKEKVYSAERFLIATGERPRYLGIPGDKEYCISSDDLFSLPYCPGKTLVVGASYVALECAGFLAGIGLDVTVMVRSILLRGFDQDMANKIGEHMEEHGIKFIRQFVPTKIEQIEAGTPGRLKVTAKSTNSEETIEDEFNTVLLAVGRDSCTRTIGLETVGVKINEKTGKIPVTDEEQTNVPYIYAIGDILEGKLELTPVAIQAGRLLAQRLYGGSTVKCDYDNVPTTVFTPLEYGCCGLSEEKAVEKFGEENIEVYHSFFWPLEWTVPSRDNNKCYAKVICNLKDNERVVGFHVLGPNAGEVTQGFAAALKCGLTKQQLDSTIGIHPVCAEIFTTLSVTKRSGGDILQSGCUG
# Test description: qHTS Assay for Inhibitors of Mammalian Selenoprotein Thioredoxin Reductase 1 (TrxR1) (AID 488773); further: nearly all actives have a fitted effect of over 40% in size
# Test conditions: purified TrxR1 enzyme activity; inhibition; series mostly up to 57.1 µM
Records with an inconclusive call do not appear. Calls of active or inactive are those of the source. Calls follow the shape of the dose curve; as a rule, active = well fitted inhibition curve with a large enough effect; inconclusive = small, poorly fitted or top-dose-only effect; inactive = no such curve, though single readings can be large or run the other way.
Valid outcomes are listed here; reply with one: active, inactive

Observe how each entry below is paired with its result.
Ask: Hi, do you know how C[N+]1(C)C2CCC1CC(OC(=O)c1c[nH]c3ccccc13)C2 (configuration not stated) came out in this test?
Result: inactive

Ask: Returns: the outcome recorded for "NNC(N)=O" in this assay.
Result: inactive

Ask: GET /call?item= "O=c1c2ccccc2[se]n1-c1ccccc1" returns the recorded outcome of this test.
Result: inactive

Ask: Could you check what this test reported for "COc1ccc2c(c1)c(CCN1CCOCC1)c(C)n2C(=O)c1cccc(Cl)c1Cl" ?
Result: inactive

Ask: What did this assay record as the result for "CNc1ccc2oc(C[C@H]3O[C@@]4(CC[C@H]3C)O[C@H]([C@H](C)C(=O)c3ccc[nH]3)[C@H](C)C[C@H]4C)nc2c1C(=O)O" ?
Result: inactive

Ask: State the result this test recorded for "NC(=O)c1cc(N2CC2)c([N+](=O)[O-])cc1[N+](=O)[O-]" .
Result: inactive

Ask: Returns: the outcome recorded for "COc1ccc2c(c1)/C(=C/c1cnc[nH]1)C(=O)N2" in this assay.
Result: inactive

Ask: Dear all, I need the recorded test outcome for "CC(=O)c1c(O)c(C)c(O)c(Cc2c(O)c3c(c(C(=O)/C=C/c4ccccc4)c2O)OC(C)(C)C=C3)c1O" , thank you.
Result: active

Ask: Status in this test for Cc1o[nH]c(=O)c1CC(N)C(=O)O (configuration not stated) ?
Result: inactive

Ask: How did this test come out for "CCCCCCC(C)(C)c1ccc([C@@H]2C[C@H](O)CC[C@H]2CCCO)c(O)c1" ?
Result: inactive

Next:
Ask: Given CC12NC(Cc3ccccc31)c1ccccc12 (configuration not stated) , state the outcome it received in this test.
Result: inactive

Ask: Please state the recorded outcome for this compound: COc1cc(CC(C)N)c(OC)cc1I (configuration not stated)
Result: inactive

Ask: Called result for "COc1ccc2c(c1O)-c1cccc3c1[C@@H](C2)N(C)CC3"
Result: inactive

Ask: How was CC(C)(C)c1o[nH]c(=O)c1CC(N)C(=O)O (configuration not stated) classified in this test?
Result: inactive

Ask: # fetch the recorded call for NCC(CP(=O)(O)O)c1ccc(Cl)cc1 (configuration not stated) here
Result: inactive

Ask: # fetch the recorded call for "Nc1ccc(CCN2CCN(c3cccc(C(F)(F)F)c3)CC2)cc1" here
Result: inactive

Ask: Which result was noted for this compound in the test: "N[C@@H](Cn1oc(=O)[nH]c1=O)C(=O)O"
Result: inactive

Ask: Which result was noted for this compound in the test: "C[N+](C)(C)CC#CCOC(=O)Nc1cccc(Cl)c1"
Result: active

Ask: Given "CCN1C[C@@]2(COC)C3[C@@H](OC)C4[C@@H]1C3([C@@H]1C[C@]3(O)[C@H](OC(=O)c5ccccc5)[C@@H]1[C@]4(OC(C)=O)[C@@H](O)[C@@H]3OC)[C@H](OC)C[C@H]2O" , state the outcome it received in this test.
Result: inactive

Ask: Please let me know the test result on file for "C[C@H](Cc1ccc2c(c1)OC(C(=O)O)(C(=O)O)O2)NC[C@H](O)c1cccc(Cl)c1" .
Result: inactive

Ask: Please let me know the test result on file for COc1ccc2c(c1)C13CCCCC1C(C2)N(C)CC3 (configuration not stated) .
Result: inactive

Ask: Call for entry "COc1ccc(CNC(=O)/C=C/c2ccc3[nH]cc(CCN(C)C)c3c2)cc1" :
Result: inactive

---

# Tested on: HACAT
# Test description: qHTS assay to identify novel small-molecules to repurpose for Merkel cell carcinoma treatment (AID 1296009); further: nearly all actives have a fitted effect of over 60% in size
# Test conditions: MCC and control cell lines, CellTiter-Glo viability, 72 h; at 44.8 µM (top of the series) unless noted
Results filed as inconclusive are left out. Active and inactive are the calls of the source. Calls come from the whole dose curve; as a rule, active = well fitted inhibition curve with a large enough effect; inconclusive = small, poorly fitted or top-dose-only effect; inactive = flat fitted curve, though single readings scatter.
Measure: outcome

Observed outcome on HACAT, entry "C[C@@](O)(COc1ccc(C#N)cc1)C(=O)Nc1ccc(C#N)c(C(F)(F)F)c1" , equals inactive

Value (outcome, HACAT) for record "COc1ccccc1CN[C@H]1C2CCN(CC2)[C@H]1C(c1ccccc1)c1ccccc1" = inactive

The measured outcome that CC1=CC2/C=C(\C)CCC(O)C3OC(C)(C)OC3CC(=O)OC23C(=O)NC(CC(C)C)C3C1C (configuration not stated) showed for HACAT is inactive [at 17.4 µM]

outcome on HACAT for "C[C@@]1(C(=O)O)CC[C@]2(C)CC[C@]3(C)C4=CC(=O)c5cc(O)c(O)cc5[C@]4(C)CC[C@@]3(C)[C@@H]2C1" is inactive [at 17.4 µM]

Short answer on HACAT for "COc1cc(C(=O)O[C@H]2[C@@H]3C=CO[C@@H](O[C@@H]4O[C@H](CO)[C@@H](O)[C@H](O)[C@H]4O)[C@@H]3[C@@]3(CO)O[C@@H]23)ccc1O" , outcome: inactive [at 17.4 µM]

We next turn to a different molecule, shown below.
HACAT assay, molecule "COc1cc(CCNCc2ccccc2O)c(OC)cc1C#N" , recorded outcome = inactive
